Data origin, for the record: ChEMBL document CHEMBL1128051

Give Survival for every item shown.
- Test system: Mus musculus
- TEST NAME: Evaluation of Radioprotective effect of the intravenously administered compound (0.1 mg/kg on day 0,4,8) after irradiation on mice with 9 Gy of X-ray on day 20
- Type: functional
One number for each entry, in %.

# count of solved cases: 3
>>> reported_value("CCCCCCCCCCCCCCCCCCCCCCCC(=O)NC(CO[C@H]1O[C@@H](CO)[C@H](O)[C@H](O)[C@@H]1O)[C@H](O)CCCCCCCCCCCCCCC (single isomer, unassigned)")
90
>>> reported_value("CCCCCCCCCCCCCCCCCCCCCC[C@@H](O)C(=O)N[C@@H](CO[C@H]1O[C@@H](CO)[C@H](O)[C@H](O)[C@@H]1O)[C@H](O)[C@H](O)CCCCCCCCCCCCCC")
80
>>> reported_value("CCCCCCCCCCCCCCC[C@@H](O)[C@H](CO[C@H]1O[C@@H](CO)[C@H](O)[C@H](O)[C@@H]1O)NC(=O)CCCCCCCCCCCCC (stereo in doubt; form 1)")
90

I need Survival for every entry listed below, if you could help.
1. CCCCCCCCCCCCCCCCCCCCCCCC(=O)N[C@@H](CO[C@H]1O[C@@H](CO)[C@H](O)[C@H](O)[C@@H]1O)C(O)[C@H](O)CCCCCCCCCCCCCC (single isomer, unassigned)
2. CCCCCCCCCCCCCCC[C@@H](O)[C@H](CO[C@H]1O[C@@H](CO)[C@H](O)[C@H](O)[C@@H]1O)NC(=O)CCCCCCCCCCCCC (stereo in doubt; form 2)
3. CCCCCCCCCCCCCCCCCCCCCC[C@@H](O)C(=O)NC(CO[C@H]1O[C@@H](CO)[C@H](O)[C@H](O)[C@@H]1O)[C@H](O)CCCCCCCCCCCCCCC (single isomer, unassigned)

Response:
1: 90; 2: 20; 3: 90
